Test system: HCV 1a replicon
Test Details: Cell-based HCV replicon assay (TaqMan), genotype 1a replicon
Details: Hepatitis C virus, 72 h, HCV genotype 1a replicon cells, replicon RNA by real time PCR, day 3; EC90 = concentration for ΔCT=3.2 over baseline
Doc: threshold 0.2 nM (exclusive). Items with EC90 beneath it return Y; others return N.

Incoming: Consider the molecule COC(=O)N[C@H](C(=O)N1C[Si](C)(C)C[C@H]1c1ncc(-c2ccc(-c3ccc4c(ccc5nc([C@@H]6CCCN6C(=O)[C@@H](NC(=O)OC)[C@@H](C)OC)[nH]c54)c3)cc2)[nH]1)[C@@H](C)OC . Is its EC90 strictly less than 0.2 nM?
Outgoing: Y

Incoming: Determine if COC(=O)N[C@H](C(=O)N1CCC[C@H]1c1ncc(-c2ccc(-c3ccc4c(ccc5nc([C@@H]6C[Si](C)(C)CN6C(=O)[C@@H](NC(=O)OC)[C@H](O)C(C)C)[nH]c54)c3)cc2)[nH]1)C(C)C shows EC90 strictly lower than 0.2 nM.
Outgoing: N

Incoming: Confirm or reject: EC90 of COC(=O)N[C@@H](Cn1ncnn1)C(=O)N1C[Si](C)(C)C[C@H]1c1nc2ccc3cc(-c4ccc(-c5cnc([C@@H]6CCCN6C(=O)[C@@H](NC(=O)OC)C(C)C)[nH]5)cc4)ccc3c2[nH]1 lies strictly below 0.2 nM
Outgoing: N

Incoming: Does this molecule meet the criterion EC90 < 0.2 nM? CCC(C)[C@H](NC(=O)OC)C(=O)N1CCC[C@H]1c1ncc(-c2ccc(-c3ccc4c(ccc5nc([C@@H]6C[Si](C)(C)CN6C(=O)[C@@H](NC(=O)OC)C(C)CC)[nH]c54)c3)cc2)[nH]1 (stereo partly drawn)
Outgoing: Y

Incoming: Determine if COC(=O)N[C@H](C(=O)N1CCC[C@H]1c1ncc(-c2ccc3cc(-c4ccc5c(ccc6nc([C@@H]7C[Si](C)(C)CN7C(=O)[C@@H](NC(=O)OC)C7CCOCC7)[nH]c65)c4)ccc3c2)[nH]1)C1CCOCC1 shows EC90 strictly lower than 0.2 nM.
Outgoing: Y

Incoming: Criterion: EC90 strictly below 0.2 nM. Is it met by COC(=O)N[C@H](C(=O)N1C[Si](C)(C)C[C@H]1c1ncc(-c2ccc(-c3ccc4c(ccc5[nH]c([C@@H]6[C@H]7CC[C@H](C7)N6C(=O)[C@@H](NC(=O)OC)C(C)C)nc54)c3)cc2)[nH]1)C(C)C ?
Outgoing: Y

Incoming: EC90 under 0.2 nM? Item: COC(=O)N[C@@H](CSC)C(=O)N1C[Si](C)(C)C[C@H]1c1nc2ccc3cc(-c4ccc(-c5cnc([C@@H]6CCCN6C(=O)[C@@H](NC(=O)OC)C(C)C)[nH]5)cc4)ccc3c2[nH]1
Outgoing: N

Incoming: Determine whether this molecule shows EC90 lower than 0.2 nM (ties excluded): CCN(CC)[C@@H](C(=O)N1CCC[C@H]1c1ncc(-c2ccc(-c3ccc4c(ccc5nc([C@@H]6C[Si](C)(C)CN6C(=O)[C@@H](c6ccccc6)N(CC)CC)[nH]c54)c3)cc2)[nH]1)c1ccccc1
Outgoing: N

Incoming: A record lists CC(C)(C)OC(=O)N1C[Si](C)(C)C[C@H]1c1nc2ccc3cc(-c4ccc(-c5nc(Cl)c([C@@H]6C[C@H]7C[C@H]7N6C(=O)OC(C)(C)C)[nH]5)cc4)ccc3c2[nH]1 . Is its EC90 below 0.2 nM?
Outgoing: N

Incoming: Strictly below 0.2 nM: is that where EC90 of COC(=O)N[C@@H](Cn1ncnn1)C(=O)N1C[Si](C)(C)C[C@H]1c1ncc(-c2ccc(-c3ccc4c(ccc5nc([C@@H]6CCCN6C(=O)[C@H](Cn6ncnn6)NC(=O)OC)[nH]c54)c3)cc2)[nH]1 sits?
Outgoing: N

Incoming: hey, is EC90 for COC(=O)N[C@H](C)C(=O)N1C[Si](C)(C)C[C@H]1c1ncc(-c2ccc(-c3ccc4c(ccc5nc([C@@H]6CCCN6C(=O)[C@@H](C)NC(=O)OC)[nH]c54)c3)cc2)[nH]1 lower than 0.2 nM or not?
Outgoing: N

Incoming: Does this molecule meet the criterion EC90 < 0.2 nM? COC(=O)N[C@@H](CC1CC1)C(=O)N1C[Si](C)(C)C[C@H]1c1nc2ccc3cc(-c4ccc(-c5cnc([C@@H]6CCCN6C(=O)[C@@H](NC(=O)OC)C(C)C)[nH]5)cc4)ccc3c2[nH]1
Outgoing: N

Incoming: Confirm or reject: EC90 of COC(=O)N[C@H](C(=O)N1CCC[C@H]1c1ncc(-c2ccc3cc(-c4ccc5c(ccc6nc([C@@H]7C[Si](C)(C)CN7C(=O)[C@@H](NC(=O)OC)C(C)C)[nH]c65)c4)ccc3c2)[nH]1)C(C)C lies strictly below 0.2 nM
Outgoing: Y

Incoming: Is 0.2 nM strictly greater than the molecule's reported EC90? molecule: CCN(CC)[C@@H](C(=O)N1CCC[C@H]1c1ncc(-c2ccc(-c3ccc4c(ccc5nc([C@@H]6C[Si](C)(C)CN6C(=O)[C@@H](NC(=O)OC)C(C)C)[nH]c54)c3)cc2)[nH]1)c1ccccc1
Outgoing: N

Incoming: Record COC(=O)N[C@@H](Cc1ccccc1)C(=O)N1C[Si](C)(C)C[C@H]1c1ncc(-c2ccc(-c3ccc4c(ccc5nc([C@@H]6CCCN6C(=O)[C@H](Cc6ccccc6)NC(=O)OC)[nH]c54)c3)cc2)[nH]1 : is its EC90 strictly below 0.2 nM?
Outgoing: N

Incoming: Dear reviewer, please state whether COC(=O)N[C@H](C(=O)N1C[C@H](F)C[C@H]1c1ncc(-c2ccc(-c3ccc4c(ccc5nc([C@@H]6C[Si](C)(C)CN6C(=O)[C@@H](NC(=O)OC)C(C)C)[nH]c54)c3)cc2)[nH]1)C(C)C has EC90 strictly beneath 0.2 nM.
Outgoing: Y

Incoming: Given COC(=O)N[C@@H](CN(C)C)C(=O)N1C[Si](C)(C)C[C@H]1c1nc2ccc3cc(-c4ccc(-c5cnc([C@@H]6CCCN6C(=O)[C@@H](NC(=O)OC)C(C)C)[nH]5)cc4)ccc3c2[nH]1 , is recorded EC90 strictly lower than 0.2 nM?
Outgoing: Y

Incoming: Lab note: EC90 threshold 0.2 nM. Does this molecule come in strictly under it? COC(=O)N[C@H](C(=O)N1CCC[C@H]1c1ncc(-c2ccc(-c3ccc4c(ccc5nc([C@@H]6C[Si](C)(C)CN6C(=O)[C@H](NC(=O)OC)C(C)(C)OC)[nH]c54)c3)cc2)[nH]1)C(C)C
Outgoing: N
